target: ATP synthase F1 subunit alpha (ATP5A1) (Mus musculus, UniProt Q03265); assay: intrinsic fluorescence titration of purified protein
Sequence (Q03265 whole entry): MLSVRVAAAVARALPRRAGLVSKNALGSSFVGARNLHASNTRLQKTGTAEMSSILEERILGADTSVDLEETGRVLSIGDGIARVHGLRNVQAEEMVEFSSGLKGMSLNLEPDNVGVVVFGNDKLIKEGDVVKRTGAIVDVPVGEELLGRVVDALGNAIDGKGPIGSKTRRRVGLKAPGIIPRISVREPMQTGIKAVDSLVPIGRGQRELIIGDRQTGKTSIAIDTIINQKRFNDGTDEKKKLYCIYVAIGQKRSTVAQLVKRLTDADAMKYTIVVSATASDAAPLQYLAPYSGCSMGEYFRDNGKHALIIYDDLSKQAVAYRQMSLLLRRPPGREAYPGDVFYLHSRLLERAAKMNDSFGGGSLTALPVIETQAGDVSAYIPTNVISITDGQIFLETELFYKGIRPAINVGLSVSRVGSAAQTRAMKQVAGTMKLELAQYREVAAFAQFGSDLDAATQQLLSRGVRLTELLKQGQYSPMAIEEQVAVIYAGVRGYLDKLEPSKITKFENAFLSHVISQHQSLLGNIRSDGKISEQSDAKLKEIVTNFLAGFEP
measured metric: Kd

INSERT INTO assay_data (chemical_smiles, val) VALUES
  ('C=C(C)[C@@H]1CCC(C)=C[C@H]1c1c(O)cc(CCCCC)cc1O', '4.9 µM');

Just for reference, paper PMC12541610 is where these values come from.
